Quick reference: selectivity for α2β3 over α1β1 (Ki α1β1:α2β3 ratio) of the listed items.
# target under test: human Na,K-ATPase α2β3FXYD1 (Homo sapiens (Human), UniProt P50993+P54709)
# test name: biochemical
# Assay type: biochemical

Solved entries:
molecule	assay value
CC1CN(C2CCC2)CCC(O[C@@H]2[C@H](C)O[C@@H](O[C@@H]3[C@H](C)O[C@@H](O[C@H]4CC[C@@]5(C)C(CCC6C5C[C@H](O)[C@]5(C)[C@@H](C7=CC(=O)OC7)CC[C@]65O)C4)C[C@@H]3O)C[C@@H]2O)O1 (stereo partly shown) [DcB]	33 fold
CC1CN(C2CCCC2)CCC(O[C@@H]2C(C)O[C@@H](OC3C(C)OC(O[C@H]4CC[C@@]5(C)C(CCC6C5CC(O)[C@]5(C)[C@@H](C7=CC(=O)OC7)CC[C@]65O)C4)C[C@@H]3O)C[C@@H]2O)O1 (stereo in doubt) [DcPe]	10-12 fold
CC1CN(Cc2ccccc2)CCC(O[C@@H]2[C@H](C)O[C@@H](O[C@@H]3[C@H](C)O[C@@H](O[C@H]4CC[C@@]5(C)C(CCC6C5C[C@H](O)[C@]5(C)[C@@H](C7=CC(=O)OC7)CC[C@]65O)C4)C[C@@H]3O)C[C@@H]2O)O1 (stereo partly shown) [DBz]	10-12 fold

Now for another entry.
Problem: Requested field: selectivity for α2β3 over α1β1 (Ki α1β1:α2β3 ratio). Item: CC1CN(CCC2CC2)CCC(O[C@@H]2[C@H](C)O[C@@H](O[C@@H]3[C@H](C)O[C@@H](O[C@H]4CC[C@@]5(C)C(CCC6C5C[C@H](O)[C@]5(C)[C@@H](C7=CC(=O)OC7)CC[C@]65O)C4)C[C@@H]3O)C[C@@H]2O)O1 (stereo partly shown) [DEcP]
Result: 10-12 fold
